# TARGET_SYSTEM: T1, human 4-1BB, full length, on transfected cells (human, UniProt Q07011 24-255)
# T1 construct: whole, on cells; also called CHOK1-h4-1BB
# T1 sequence (Q07011 24-255): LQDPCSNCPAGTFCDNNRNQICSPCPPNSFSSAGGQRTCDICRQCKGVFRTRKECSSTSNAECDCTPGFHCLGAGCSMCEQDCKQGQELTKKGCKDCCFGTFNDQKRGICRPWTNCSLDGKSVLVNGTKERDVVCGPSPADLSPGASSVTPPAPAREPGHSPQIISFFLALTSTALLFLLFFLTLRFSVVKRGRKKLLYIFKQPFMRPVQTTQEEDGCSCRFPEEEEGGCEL
# MEASUREMENT_PROTOCOL: FACS, CHOK1-h4-1BB cells; Ab 0.08 ug/ml
Below, each entry is listed alongside its reported average fluorescence intensity.

BINDER	RESULT_UNITS	average fluorescence intensity
170D7F2 (antibody, V domains shown) VH: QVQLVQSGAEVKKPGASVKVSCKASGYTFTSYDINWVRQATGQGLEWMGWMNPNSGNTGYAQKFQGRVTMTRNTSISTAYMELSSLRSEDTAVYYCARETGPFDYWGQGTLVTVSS VL: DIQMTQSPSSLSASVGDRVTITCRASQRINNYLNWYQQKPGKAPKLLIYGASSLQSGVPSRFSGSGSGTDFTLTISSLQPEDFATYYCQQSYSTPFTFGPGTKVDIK	MFI	183
52F4G2 (antibody, V domains shown) VH: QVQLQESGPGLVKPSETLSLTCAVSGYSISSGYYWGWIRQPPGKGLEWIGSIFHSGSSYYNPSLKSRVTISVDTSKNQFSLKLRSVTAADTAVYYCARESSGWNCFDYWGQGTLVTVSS VL: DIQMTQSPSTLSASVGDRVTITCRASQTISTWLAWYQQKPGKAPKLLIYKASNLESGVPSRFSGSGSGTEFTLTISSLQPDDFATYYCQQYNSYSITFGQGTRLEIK	MFI	410
